- System: 786-0 renal
- run.description: NCI tumour cell line growth inhibition, 48 h
Quick reference for TGI among some compounds
Provide only the numeric value, understood in µM.

S=C(Nc1ccc(Cl)cc1)Nc1ccc(-c2nc3ccccc3[nH]2)cc1    22.8
CN(C)CCO/N=C1/C=C2CC[C@H]3[C@@H]4CC[C@H](O)[C@@]4(C)CC[C@@H]3[C@@]2(C)CC1    27.9
CC(=O)O[C@H]1C(=O)[C@@]2(C)[C@H]([C@H](OC(=O)C3CCCCC3)[C@]3(O)C[C@H](OC(=O)[C@H](O)[C@@H](NC(=O)C4CCCCC4)C4CCCCC4)C(C)=C1C3(C)C)[C@]1(OC(C)=O)CO[C@@H]1C[C@@H]2O    6.97

We now examine a further compound.
Data request: Item under review: O=[N+]([O-])c1cccc2nccc(NCC(O)CO)c12 (stereo not given) . Reported TGI?
Data returned: 35

----------
- Tested on: SK-MEL-2 melanoma
- run.description: NCI tumour cell line growth inhibition, 48 h
Categories are defined by ranges of TGI, namely one = under 30 µM, two = from 30 µM up to 40 µM, three = 40 µM and over

Examples with answers:
Cc1cc2oc(=O)[nH]c(=S)c2c(C)c1C    three
O=c1cc(-c2ccccc2)nc2n1CCN2Cc1ccccc1    three
COc1ccc(OC)c2nc3c(C(=O)NCCN(C)C)cccc3nc12    one
OCCCCC#Cc1ccccc1C#Cc1ccccc1C(F)(F)F    two
c1ccc(CCN(Cc2nc3ccccc3[nH]2)Cc2nc3ccccc3[nH]2)cc1    two

Data request: Band of O=C(C(Br)Br)C(Br)C(Br)c1ccccc1 (stereo not drawn) ?
Data returned: two

Data request: Sort CC(O)C(O)C(N)CC=O (stereo not drawn) into one of the categories.
Data returned: three

Data request: In plain terms, what class is "CC1=Cc2cc3[n-]c(cc4nc(cc5[n-]c(cc1n2)cc5C)C(C)=C4CCC(=O)O)c(CCC(=O)O)c3C.[Pd+2]" ?
Data returned: three

Data request: Where would "CNC(=O)CCNC(=O)CCC(=O)OC" land among the classes by reported TGI?
Data returned: three

----------
- Tested on: OVCAR-5 ovarian
- run.description: NCI tumour cell line growth inhibition, 48 h
List of TGI values.
Report the figure in µM without appending any unit label.

Use these answered entries as a reference point.
C[C@]12CC[C@@H]3c4ccc(O)cc4CC[C@H]3[C@@H]1CC[C@@H]2NS(=O)(=O)Cc1ccc(Cl)cc1    14.2
C=C(C)[C@@H]1CC[C@]2(C(=O)O)CC[C@]3(C)[C@H](CC[C@@H]4[C@@]5(C)CC[C@H](C(=O)/C=C/c6ccc(O)cc6)C(C)(C)[C@@H]5CC[C@]43C)[C@@H]12    23.7
COc1cc(/C=C/C(=O)c2ccc(Cl)cc2)ccc1OS(=O)(=O)c1ccc(C)cc1    33.2
CC1=Cc2cc3[n-]c(cc4nc(cc5[n-]c(cc1n2)cc5C)C(C)=C4CCC(=O)O)c(CCC(=O)O)c3C.[Pd+2]    58.2
CC(=O)OCC1OC(O[C@@H]2c3c(O)c4c(c(O)c3C3=C(NN(c5ccc([N+](=O)[O-])cc5[N+](=O)[O-])[Se]3=O)[C@@]2(C)O)C(=O)c2ccccc2C4=O)C(OC(C)=O)C(OC(C)=O)C1OC(C)=O (stereo partly drawn)    2.07

Data request: Please tell me: TGI of "O=C(Oc1ccc(CCl)cc1)c1ccccc1" , system OVCAR-5 ovarian?
Data returned: 0.302

Data request: Give the reported TGI for CC(=O)CCC[C@@H](C)[C@@H]1O[C@H]([C@@]2(C)CCC(=O)O2)C[C@H]2C(CSc3ccccc3)C(=O)O[C@@H]12 (stereo partly drawn) (system: OVCAR-5 ovarian).
Data returned: 32.4

Data request: Observed TGI on OVCAR-5 ovarian for "O=C1c2ccccc2-c2c1c1ccccc1c(=O)n2CCNCCNCCn1c2c(c3ccccc3c1=O)C(=O)c1ccccc1-2" , please.
Data returned: 34.5

----------
The following compounds are shown together with reported GI50 values.
- System: NCI-H23 lung
- run.description: NCI tumour cell line growth inhibition, 48 h

Solved entries (count: 7):
O=C(Nc1ccc(Cl)cc1)c1cc2ccccc2cc1O    2 µM
COc1ccc(-c2nc(-c3cn(C)c4ncccc34)cs2)cc1    > 100 µM
COc1cc2c(/C=C3/C(=O)Nc4ccccc43)c(Cl)n(Cc3ccccc3[N+](=O)[O-])c2cc1C    7.77 µM
O=C(C(Br)Br)C(Br)C(Br)c1ccccc1 (stereo not drawn)    5.16 µM
CCOC(=O)Oc1c(OC)cc(C(=O)O[C@@H]2C[C@@H]3CN4CCc5c([nH]c6cc(OC)ccc56)[C@H]4C[C@@H]3[C@H](C(=O)OC)[C@H]2OC)cc1OC    5.24 µM
OCCCCC#Cc1ccccc1C#Cc1ccccc1C(F)(F)F    12.1 µM
Cc1ccc2c(N)c(C(=O)N[C@H]3CCc4cc(N5CC6CCC(C5)N6)ccc4C3)sc2n1    1.24 µM

Now consider a different compound.
Data request: Please look up its GI50: "CC1(C)N=C(N)N=C(N)N1c1cc(Cl)ccc1Cl"
Data returned: > 100 µM

----------
- Test system: OVCAR-3 ovarian
- run.description: NCI tumour cell line growth inhibition, 48 h
readout.type: TGI

O=[N+]([O-])C1C2C=CC(C2)[C@H]1c1ccccc1Cl (stereo partly specified)    > 31.6 µM
NC1=NC(OCC2(CO)CCC2)C=C(NCC2(CO)CCC2)N1 (stereo unspecified)    > 100 µM
CC1N(C)C(=O)OC12CCN(CCCC(=O)c1ccc(F)cc1)CC2 (stereo unspecified)    > 100 µM

Data request: Any idea what TGI was measured for "Cc1[nH]c(/C=C2\C(=O)Nc3ccc(F)cc32)c(C)c1C(=O)NC[C@H](O)CN1CCOCC1" ?
Data returned: > 10 µM

Data request: Name the recorded TGI for O=C1/C(=C\c2cccc(Oc3ccccc3)c2)SC(c2ccccc2)N1c1ccc(Cl)cc1 (stereo unspecified) .
Data returned: > 100 µM

Data request: What measured TGI goes with "O=c1c2cccnc2nc2ccc3c[nH][nH]c3c12" ?
Data returned: > 10 µM

Data request: Looking for the measured TGI of CC1[C@@H](OCc2ccccc2)COC(=O)N1Cc1ccccc1 (stereo partly specified) , can you help?
Data returned: > 100 µM

Data request: Query: TGI; subject: ON=C1CCC(c2ccccc2)CC1 (stereo unspecified)
Data returned: > 100 µM

Data request: What value of measured TGI is listed for "COC(=O)c1c(CC#N)cccc1CC#N" ?
Data returned: > 100 µM

Data request: Consider the compound shown here: C[C@]12CC(c3ccccc3O1)C(C(=O)NC13CC4CC(CC(C4)C1)C3)C(=O)N2 (stereo partly specified) What is its recorded TGI?
Data returned: > 100 µM

Data request: Any idea what TGI was measured for "CNC(=O)CCNC(=O)CCC(=O)OC" ?
Data returned: > 100 µM

----------
- Test system: SK-MEL-5 melanoma
- run.description: NCI tumour cell line growth inhibition, 48 h
Reported TGI values for the following compounds.
Field: numeric (µM). Do not append units.

Recorded results for 2 compounds are shown here.
C/C=C(/C)C(=O)O[C@H]1C(C)=C[C@]23C(=O)[C@@H](C=C(COC(C)=O)[C@@H](O)[C@]12O)[C@H]1[C@@H](C[C@H]3C)[C@@]1(C)OC(=O)/C(C)=C\C    3.84
O=c1cc(-c2cccc(OC(F)(F)F)c2)[nH]c2cc3c(cc12)OCO3    0.336

Please find the next compound below.
Data request: Form field: reported TGI of "CC1(C)COC(/C=C/C2=NC(C)(C)CO2)=N1"
Data returned: 27.3

----------
- Tested on: HCT-15 colon
- run.description: NCI tumour cell line growth inhibition, 48 h; in the data active means GI50 below about 0.43 µM; inactive means the rest
Write down the outcome that applies. Available outcomes: active, inactive

Below, 2 compounds whose answers are already recorded.
[C-]#[O+].[C-]#[O+].[Ir].[O-]c1cccc2cccnc12    inactive
CN(C)Cc1ccc(C(=O)Nc2ccc3ncnc(Nc4ccc(Oc5cccc(F)c5)c(Cl)c4)c3c2)cc1    inactive

Data request: Each compound tested received a call. Report the one for C[C@H]1CCC/C=C/[C@@H]2C[C@H](O)C[C@H]2[C@H](O)[C@@H](S(=O)CCN(C)C)CC(=O)O1 (stereo not given in full) .
Data returned: active

Data request: Short answer needed: outcome of this test for "COc1nc(C)cc2c(=O)n(-c3ccccc3)n(CCCN3CCN(c4ccc(Cl)cc4)CC3)c(=O)c12" ?
Data returned: inactive

Data request: Which outcome was entered for the compound N.N.NC(CS)C(=O)[O-].NC(CS)C(=O)[O-].[Pt+4] (stereo not given) in this test?
Data returned: inactive

----------
- Test system: HL-60(TB) leukemia
- run.description: NCI tumour cell line growth inhibition, 48 h
readout.type: TGI

Consider the worked cases shown below.
[N-]=[N+]=NC1C(Br)C(=O)NC(=O)N1[C@H]1C[C@H](O)[C@@H](CO)O1 (some centres not stated)    > 100 µM
O=[N+]([O-])C1C2C=CC(C2)[C@H]1c1ccccc1Cl (some centres not stated)    > 92.5 µM
Cc1cc(S(=O)(=O)Nc2nnc(-c3ccccc3)c(-c3ccccc3)n2)c(SCc2ccccc2)cc1Cl    67.2 µM
CCCCCCCCCCCCCCCCP(=O)(O)OP(=O)(O)OCC1OC(n2cnc3c(N)ncnc32)C(O)C1O (configuration not stated)    > 100 µM
[N-]=[N+]=Nc1ccc2c(c1)Sc1ccccc1N2CCCCCl    64.3 µM
COc1ccc2[nH]c(Cl)c(/C=C3/C(=O)N(C)c4ccccc43)c2c1    > 100 µM

Switching to the query record.
Data request: Value lookup for TGI; key = "Cc1cc(C)nc(Nc2nc3ccc([N+](=O)[O-])cc3[nH]2)n1"
Data returned: > 100 µM

Attribution: PubChem BioAssay (NCI)
